Target: T1, Human GHR-Fc-10x His (extracellular region of human growth hormone receptor fused to human Fc) (human, UniProt P10912 50-256)
T1 construct: Captured by its 10x His-tag on a Ni-NTA sensor chip for SPR; not shown: human Fc domain of vector pAB1200 with its linker; 10x His-tag replacing the AviTag
T1 sequence (looked up): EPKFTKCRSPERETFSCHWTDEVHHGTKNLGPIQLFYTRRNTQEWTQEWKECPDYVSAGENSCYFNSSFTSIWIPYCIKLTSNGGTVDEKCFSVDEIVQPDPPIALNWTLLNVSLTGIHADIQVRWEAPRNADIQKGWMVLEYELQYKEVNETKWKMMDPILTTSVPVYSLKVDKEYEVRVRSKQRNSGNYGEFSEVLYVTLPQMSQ
Experiment: SPR, GHR-Fc-10xHis captured on Ni-NTA chip, Fab as analyte, 1:1 fit
A collection of binders and their measured kon
# number only, unit M⁻¹ s⁻¹ dropped from output

Some solved cases for reference:
[[record]]
binder = "GHR12 Fab (Fab, V domains shown, Fab) VH: EVQLVESGGGLVQPGGSLRLSCAASGFNVSYYSIHWVRQAPGKGLEWVASIYSSYGSTYYADSVKGRFTISADTSKNTAYLQMNSLRAEDTAVYYCARGYWQGGYYRWGNGGLDYWGQGTLVTVSS VL: DIQMTQSPSSLSASVGDRVTITCRASQSVSSAVAWYQQKPGKAPKLLIYSASSLYSGVPSRFSGSRSGTDFTLTISSLQPEDFATYYCQQSYGWLITFGQGTKVEIKR"
data_value = 536000

[[record]]
binder = "GHR5 Fab (Fab, V domains shown, Fab) VH: EVQLVESGGGLVQPGGSLRLSCAASGFNVSYYSIHWVRQAPGKGLEWVAYISPSSGSTSYADSVKGRFTISADTSKNTAYLQMNSLRAEDTAVYYCARMYWQGGYSSYWQSYAMDYWGQGTLVTVSS VL: DIQMTQSPSSLSASVGDRVTITCRASQSVSSAVAWYQQKPGKAPKLLIYSASSLYSGVPSRFSGSRSGTDFTLTISSLQPEDFATYYCQQKSQYSLVTFGQGTKVEIKR"
data_value = 136000


Now for another entry.
Would you kindly share the measured kon for GHR13 Fab (Fab, V domains shown, Fab) VH: EVQLVESGGGLVQPGGSLRLSCAASGFNVYYSSIHWVRQAPGKGLEWVAYIYPSSGSTSYADSVKGRFTISADTSKNTAYLQMNSLRAEDTAVYYCARSWQWYYPGWEQYGWYGMDYWGQGTLVTVSS VL: DIQMTQSPSSLSASVGDRVTITCRASQSVSSAVAWYQQKPGKAPKLLIYSASSLYSGVPSRFSGSRSGTDFTLTISSLQPEDFATYYCQQSGGSLVTFGQGTKVEIKR ?
187000

Measured values drawn from patent US20250179200A1 for this set.
